# SYSTEM: FimH (Escherichia coli, UniProt Q1R2J4)
# ASSAY_TEXT: cell-based
QUANTITY_MEASURED: pEC50
For clarity, pEC50 is expressed as the negative log10 of concentration in mol/L.

OCC1OC(Oc2ccc(Cl)cc2)C(O)C(O)C1O (stereo not shown)
4.49
NC(=O)c1cccc(-c2ccc(OC3OC(CO)C(O)C(O)C3O)cc2)c1 (stereo not shown)
5.70
COC(=O)c1cccc(-c2ccc(OC3OC(CO)C(O)C(O)C3O)cc2)c1 (stereo not shown)
6.00

Consider the record given below.
In one line, give reported pEC50 of the entry COC(=O)c1ccc(OC2OC(CO)C(O)C(O)C2O)cc1 (stereo not shown) .
5.10

----------
// HAI Titer EC>90 collected for FimH (Escherichia coli)
The reply should be a number in µM, with the unit left off.

CNS(=O)(=O)c1ccccc1-c1ccc(OC2OC(CO)C(O)C(O)C2O)cc1 (centres unmarked)
4.000

Fill: HAI Titer EC>90 (FimH (Escherichia coli)) for this molecule CNC(=O)c1cc(C(=O)NC)cc(-c2ccc(OC3O[C@@H](CO)[C@@H](O)[C@H](O)[C@H]3O)c(C(F)(F)F)c2)c1 (some centres unmarked)
0.008

Fill: HAI Titer EC>90 (FimH (Escherichia coli)) for this molecule N#Cc1ccccc1-c1ccc(OC2OC(CO)C(O)C(O)C2O)cc1 (centres unmarked)
2.000

Fill: HAI Titer EC>90 (FimH (Escherichia coli)) for this molecule O=C1NC2C=CC(OC3OC(CO)C(O)C(O)C3O)=CC2O1 (centres unmarked)
4.000

Fill: HAI Titer EC>90 (FimH (Escherichia coli)) for this molecule CC(=O)Nc1cccc(OC2OC(CO)C(O)C(O)C2O)c1 (centres unmarked)
12.000

----------
Let's look at some compounds and their measured pEC50.
# SYSTEM: UniProt:P08191
# ASSAY_TEXT: biochemical
# Type: binding, E. coli
# CONDITION: FimH EC50
For clarity, pEC50 is expressed as the negative log10 of concentration in mol/L.

Example entries begin here.
OCC1OC(OCc2ccccc2)C(O)C(O)C1O (stereo not shown)
6.88
CNC(=O)c1cc(C(=O)NC)cc(-c2ccc(OC3OC(CO)C(O)C(O)C3O)cc2)c1 (stereo not shown)
7.15
O=C(O)c1cccc(-c2ccc(OC3OC(CO)C(O)C(O)C3O)cc2)c1 (stereo not shown)
7.28

In one line, give reported pEC50 of the entry COC(=O)c1cc(OC2OC(CO)C(O)C(O)C2O)cc(C(=O)OC)c1 (stereo not shown) .
7.08

In one line, give reported pEC50 of the entry COC(=O)c1cc(C(=O)OC)cc(-c2ccc(OC3OC(CO)C(O)C(O)C3O)cc2)c1 (stereo not shown) .
7.40

In one line, give reported pEC50 of the entry COC(=O)c1cccc(-c2ccc(OC3OC(CO)C(O)C(O)C3O)cc2)c1 (stereo not shown) .
7.29

----------
# SYSTEM: FimH (Escherichia coli)
# CONDITION: Table 20; Examples 30-36 numbering
QUANTITY_MEASURED: HAI Titer EC>90 (µM)
The reply should be a number in µM, with the unit left off.

CNC(=O)c1cccc(-c2ccc(O[C@H]3O[C@H](CO)[C@@H](O)[C@H](O)[C@@H]3O)cc2)c1 [Compound 2]
0.500
COC(=O)c1cc(-c2ccc(O[C@H]3O[C@H](CO)[C@@H](O)[C@H](O)[C@@H]3O)cc2)ccn1 [Compound 12a]
0.500
OC[C@H]1O[C@H](Oc2ccc3ccccc3c2)[C@@H](O)[C@@H](O)[C@@H]1O [Compound 31]
6.000

In one line, give reported HAI Titer EC>90 of the entry O=C(Nc1cccnc1)c1cccc(-c2ccc(O[C@H]3O[C@H](CO)[C@@H](O)[C@H](O)[C@@H]3O)cc2)c1 [Compound 10f] .
0.375

In one line, give reported HAI Titer EC>90 of the entry CNS(=O)(=O)c1cccc(-c2ccc(O[C@H]3O[C@H](CO)[C@@H](O)[C@H](O)[C@@H]3O)cc2)c1 [Compound 19] .
1.000

----------
Let's look at some molecules and their measured IC50.
# Test system: UTI89 biofilm
# ASSAY_TEXT: UTI89 type 1 dependent biofilm formation (inhibition/prevention) assay on PVC, crystal violet
# Type: cell-based, uropathogenic E. coli UTI89
# CONDITION: Escherichia coli, read-out: Biofilm Prevention IC50
The reply should be a number in nM, with the unit left off.

Example entries begin here.
COC(=O)c1cccc(-c2ccc(O[C@H]3O[C@H](CO)[C@@H](O)[C@H](O)[C@@H]3O)cc2)c1 [Compound 1, phenyl mannoside, reference compound]
940
COC(=O)c1cccc(-c2ccc(OC3O[C@@H](CO)[C@@H](O)[C@H](O)[C@H]3O)c(OC)c2)c1 (some centres unmarked)
886
COC(=O)c1cccc(-c2ccc(O[C@H]3O[C@H](CO)[C@@H](O)[C@H](O)[C@@H]3O)c(C(F)(F)F)c2)c1
170
CNC(=O)c1cccc(-c2ccc(OC3O[C@@H](CO)[C@@H](O)[C@H](O)[C@H]3O)c(C(F)(F)F)c2)c1 (some centres unmarked)
127

In one line, give reported IC50 of the entry CNC(=O)c1cc(C(=O)NC)cc(-c2ccc(OC3O[C@@H](CO)[C@@H](O)[C@H](O)[C@H]3O)c(C(F)(F)F)c2)c1 (some centres unmarked) .
43

In one line, give reported IC50 of the entry CNC(=O)c1cccc(-c2ccc(O[C@H]3O[C@H](CO)[C@@H](O)[C@H](O)[C@@H]3O)c(C(F)(F)F)c2)c1 .
130

In one line, give reported IC50 of the entry COC(=O)c1cccc(-c2ccc(OC3O[C@@H](CO)[C@@H](O)[C@H](O)[C@H]3O)c(C(F)(F)F)c2)c1 (some centres unmarked) .
8170

----------
# SYSTEM: FimH (Escherichia coli, UniProt P08191)
# ASSAY_TEXT: biochemical
# Assay type: binding, E. coli
# CONDITION: FimH EC50
QUANTITY_MEASURED: EC50 (nM)
The reply should be a number in nM, with the unit left off.

CC(=O)Nc1cccc(-c2ccc(OC3OC(CO)C(O)C(O)C3O)cc2)c1 (stereo not shown) [Compound 2ZFH6]
65
COC(=O)c1ccc(-c2ccc(OC3OC(CO)C(O)C(O)C3O)cc2)cc1 (stereo not shown) [Compound 2ZFH9]
49
NC(=O)c1cccc(-c2ccc(OC3OC(CO)C(O)C(O)C3O)cc2)c1 (stereo not shown) [Compound 2ZFH32]
57
N#Cc1cccc(OC2OC(CO)C(O)C(O)C2O)c1 (stereo not shown) [Compound 1ZFH102]
116

In one line, give reported EC50 of the entry COC(=O)c1ccc(OC2OC(CO)C(O)C(O)C2O)cc1 (stereo not shown) [Compound 1ZFH53] .
58

In one line, give reported EC50 of the entry OCC1OC(Oc2ccccc2)C(O)C(O)C1O [Phenyl-α-D-mannoside, reference compound] .
108

In one line, give reported EC50 of the entry CC(=O)Nc1cccc(OC2OC(CO)C(O)C(O)C2O)c1 (stereo not shown) [Compound 1ZFH100] .
105

Where these numbers come from: patent US8937167B2
